Test system: KM12
assay-text: NCI tumour cell line growth inhibition, 48 h
The source made the active and inactive calls. Cut-off read from the data, not from the text of the source: active = GI50 up to about 1.1 µM and inactive = higher. Peptide text beside a SMILES is read from it. * marks the point of attachment. X27 = Clc1c(Cl)c(Cl)c(O*)c(Cl)c1Cl; Boc = CC(C)(C)OC(=O)*; OBn = c1ccc(CO*)cc1; Bn = c1ccc(C*)cc1
# valid calls are active, inactive; nothing else

q: Recorded test outcome, item [N-]=[N+]=NI1OC(=O)c2ccccc21
a: inactive

q: Recorded test outcome, item S=C1CSc2c(ccc3ccccc23)N1
a: inactive

q: Recorded test outcome, item O=C(O)CCCNS(=O)(=O)c1ccc2ccccc2c1
a: inactive

q: Recorded test outcome, item CC1(C)CC(=O)C(C(c2cccc(O)c2O)C2C(=O)CC(C)(C)CC2=O)C(=O)C1
a: inactive

q: Recorded test outcome, item Cc1n[nH]c(=O)c2cc(-c3ccccc3)[nH]c12
a: inactive

q: Recorded test outcome, item COC1CCC(O)C(/C=C/[N+](=O)[O-])C1 (centres undefined)
a: inactive

q: Recorded test outcome, item CCCCCCCCCCCC[N+]12CC[N+](C)(CC1)CC2
a: inactive

q: Recorded test outcome, item O=C(OCC(OC(=O)c1ccccc1)C1CC(C2(O)CCCCC2)C(=O)O1)c1ccccc1 (centres undefined)
a: inactive

q: Recorded test outcome, item CC(=O)OC(C)(C)/C=C/C(=O)[C@](C)(O)[C@H]1[C@H](O)C[C@@]2(C)[C@@H]3CC=C4[C@@H](C[C@H](O)[C@H](O)C4(C)C)[C@]3(C)C(=O)C[C@]12C
a: active

q: Recorded test outcome, item COC(=O)CN(CC1O[C@@H]2OC(C)(C)O[C@@H]2C1NC(C)=O)C(=O)OCc1ccccc1 (some centres undefined)
a: inactive

q: Recorded test outcome, item COc1ccccc1NCc1cccc2c(=O)c3ccc(Cl)cc3oc12
a: inactive

q: Recorded test outcome, item O=C1NC2ON=C(c3ccccc3)C2C2ON=C(c3ccccc3)N12 (centres undefined)
a: inactive

q: Recorded test outcome, item CSc1c(C)[n+]([O-])c2cc(Cl)c(Cl)cc2[n+]1[O-]
a: inactive

q: Recorded test outcome, item CC(C)CC(NC(=O)C(CCC(=O)OCc1ccccc1)NC(=O)OC(C)(C)C)C(=O)NC(COCc1ccccc1)C(=O)NC(Cc1ccccc1)C(=O)Oc1c(Cl)c(Cl)c(Cl)c(Cl)c1Cl (centres undefined) (Boc-E(OBn)LS(Bn)F-X27; configuration not given here)
a: inactive

q: Recorded test outcome, item Cc1ccc(S(=O)(=O)N/N=C2/CC[C@H](C(C)(C)C)C[C@@H]2C)cc1
a: inactive

q: Recorded test outcome, item COC(=O)C(C(=O)C(=O)Nc1ccc(N)cc1[N+](=O)[O-])c1nc2ccc(Cl)cc2nc1O (centres undefined)
a: inactive

q: Recorded test outcome, item CN(C(=O)C12C3C4C1C1C2C3C41C(=O)O)C(C)(C)C (centres undefined)
a: inactive

q: Recorded test outcome, item C=C(CCC=C(C)C)C1CC=C(C)CC1 (centres undefined)
a: inactive

q: Recorded test outcome, item COC(=O)C(Cc1ccccc1)NC(=O)C(CCCNC(=N)N)NC(=O)OCc1ccccc1 (centres undefined)
a: inactive

* * *

Please go through the items and note down their GI50.
System: NCI/ADR-RES
assay-text: NCI tumour cell line growth inhibition, 48 h
Calls of active or inactive are those of the source. No stated cut-off is given here; in the data, active = GI50 up to about 1.1 µM and inactive = higher. Non-standard residues stand in square brackets, D forms with d. Residues, ends and D or L forms follow the SMILES beside them. ξ: configuration not given here. *: point of attachment. NMeY = CN[C@@H](Cc1ccc(O)cc1)C(=O)O; Cbz = O=C(OCc1ccccc1)*; ξA = CC(N)C(=O)O

q: # GI50 lookup, item C/C1=C/C2=CC(C)C[C@@H]2C(=O)[C@]2(C)C(=O)CC(C)(C)[C@H]2CC1=O (some centres undefined)
a: > 50 µM (inactive)

q: # GI50 lookup, item CC1=C(/C=C/C(C)=C/C=C/C(C)=C/CO)C(C)(C)CCC1 [RETINOL]
a: 19.5 µM (inactive)

q: # GI50 lookup, item O=c1[nH]c(=O)n(C2CC(O)C(COP(=O)(OCC(Cl)(Cl)Cl)OCC(Cl)(Cl)Cl)O2)cc1F (centres undefined)
a: 1.29 µM (inactive)

q: # GI50 lookup, item COc1ccc(C[C@@H](C(=O)NCC(N)=O)N(C)C(=O)[C@@H]2CCCN2C(=O)[C@H](CC(C)C)NC(=O)C(C)NC(=O)OCc2ccccc2)cc1 (some centres undefined) (Cbz-[ξA]LP[NMeY](Me)G-NH2)
a: > 100 µM (inactive)

q: # GI50 lookup, item COc1ccc(/N=N/C(=N\c2ccccc2)c2ccc(N(CCC#N)CCC#N)cc2)cc1
a: 95.3 µM (inactive)

q: # GI50 lookup, item COc1cc2nc(-c3ccccc3F)nc(O)c2cc1OC
a: > 100 µM (inactive)

q: # GI50 lookup, item Fc1ccc(C(OCCN2CCN(CCCCl)CC2)c2ccc(F)cc2)cc1
a: 24.7 µM (inactive)

q: # GI50 lookup, item O=C(Cc1nc2ccc(C(=O)c3ccccc3)cc2nc1O)C(=O)Nc1ccccc1[N+](=O)[O-]
a: 45.1 µM (inactive)

q: # GI50 lookup, item C=C[C@]1(O[Si](C)(C)C)C[C@@]2(C(=O)OCC)C(O)C(=O)N3CCc4cc(OC)c(OC)cc4[C@]312 (some centres undefined)
a: > 100 µM (inactive)

q: # GI50 lookup, item N#Cc1nc(CCN2C(=O)c3ccccc3C2=O)oc1N
a: > 100 µM (inactive)

q: # GI50 lookup, item CN(C)CCNC(=O)c1cccc2c(NCCN(C)C)c3ccccc3nc12
a: 7.78 µM (inactive)

q: # GI50 lookup, item CCCCCCCCCCCCCCCCNc1ccn(C2CC(O)C(COC(c3ccccc3)(c3ccccc3)c3ccc(OC)cc3)O2)c(=O)n1 (centres undefined)
a: > 100 µM (inactive)

q: # GI50 lookup, item CC1Cc2c(Br)nc(N)nc2NC1=O (centres undefined)
a: > 100 µM (inactive)

q: # GI50 lookup, item Clc1ccccc1-c1nc2cc(C34CC5CC(CC(C5)C3)C4)ccc2[nH]1
a: 28.1 µM (inactive)

q: # GI50 lookup, item Cc1c2c(C(N)=O)nccc2c(C)c2c1c1ccccc1n2Cc1ccccc1
a: 9.75 µM (inactive)

q: # GI50 lookup, item COc1ccc(-n2c(=O)n(C)c(=O)n2-c2ccc(OC)cc2)cc1
a: > 100 µM (inactive)

q: # GI50 lookup, item COC(=O)c1cc(Br)c(C(=O)C(Cl)(Cl)Cl)[nH]1
a: > 100 µM (inactive)

q: # GI50 lookup, item Cc1nc2cccc(F)c2c(=O)n1-c1nnc(C(F)(F)F)s1
a: > 10 µM (inactive)

q: # GI50 lookup, item COc1cc(/C=C/C(=N\NC(=S)NN)c2sc(NNC(C)=O)nc2C)ccc1O
a: > 100 µM (inactive)
